Hello, the source for this data is ChEMBL document CHEMBL1142814, in case you need it.

tested on: L1210; assay: Concentration required to inhibit murine leukemia L1210 cell line proliferation; type: functional, cell-based; settings: Mus musculus
EXPERIMENTAL ENDPOINT: IC50 (nM)
One number for each entry, in nM.

// worked examples, IC50 included
Task item: Please report the recorded IC50 for `COc1cc(C(=O)c2sc3cc(C)ccc3c2N)cc(OC)c1OC` .
Reply: 58

Task item: Now the compound `COc1ccc(C(=O)c2c(N)sc3ccccc23)cc1OC`
Reply: 3700

Task item: Now the compound `COc1cc(C(=O)c2sc3ccccc3c2N)cc(OC)c1OC`
Reply: 350

Lab note: next compound to report on.
Task item: Please report the recorded IC50 for `COc1cc(C(=O)c2c(N)sc3c2CCCC3)cc(OC)c1OC` .
Reply: 2240

----------
molecular target: Tubulin beta chain (Bos taurus); test: Concentration required to inhibit tubulin polymerization at 10 uM
Provide the reported IC50 of each item.
Answers are plain numbers, in µM.

Kindly give each listed record's IC50.
1. COc1cc(C(=O)c2c(N)sc3ccccc23)cc(OC)c1OC
2. COc1cc(C(=O)c2sc3ccccc3c2N)cc(OC)c1OC
3. COc1cc(C(=O)c2sc3cc(C)ccc3c2N)cc(OC)c1OC

Reply:
1. 3.1
2. 4.2
3. 1.3

----------
biological target: Tubulin beta chain (Bos taurus) (UniProt Q6B856); assay: Inhibition of 1 uM [3H]colchicine binding to tubulin at 5 uM
Sequence (Q6B856 whole entry): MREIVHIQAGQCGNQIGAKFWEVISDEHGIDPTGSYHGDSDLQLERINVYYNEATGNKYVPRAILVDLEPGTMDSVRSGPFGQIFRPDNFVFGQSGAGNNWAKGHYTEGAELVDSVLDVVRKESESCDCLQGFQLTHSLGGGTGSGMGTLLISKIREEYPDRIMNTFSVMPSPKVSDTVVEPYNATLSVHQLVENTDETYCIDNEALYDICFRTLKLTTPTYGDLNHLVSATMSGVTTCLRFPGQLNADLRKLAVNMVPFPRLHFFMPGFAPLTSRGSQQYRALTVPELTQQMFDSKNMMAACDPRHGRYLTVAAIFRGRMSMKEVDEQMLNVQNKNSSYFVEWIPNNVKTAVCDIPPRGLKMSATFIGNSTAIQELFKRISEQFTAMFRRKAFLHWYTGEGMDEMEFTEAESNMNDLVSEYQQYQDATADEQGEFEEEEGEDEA
EXPERIMENTAL ENDPOINT: inhibition (%)
Answers are plain numbers, in %.

// worked examples, inhibition included
Task item: Please report the recorded inhibition for `COc1cc(C(=O)c2c(N)sc3c2CCCC3)cc(OC)c1OC` .
Reply: 3

Task item: Now the compound `COc1cc(C(=O)c2sc3cc(C)ccc3c2N)cc(OC)c1OC`
Reply: 88

Task item: Now the compound `COc1cc(C(=O)c2sc3ccccc3c2N)cc(OC)c1OC`
Reply: 39

Lab note: next compound to report on.
Task item: Please report the recorded inhibition for `COc1cc(C(=O)c2c(N)sc3ccccc23)cc(OC)c1OC` .
Reply: 57

----------
Provide the reported IC50 of each item.
system: L1210; assay: Concentration required to inhibit murine leukemia L1210 cell line proliferation; type: functional, cell-based; details: Mus musculus

Task item: Please report the recorded IC50 for `COc1cc(C(=O)c2oc3ccccc3c2N)cc(OC)c1OC` .
Reply: > 10 µM

Task item: Now the compound `COc1cc(C(=O)c2[nH]c3ccccc3c2N)cc(OC)c1OC`
Reply: > 10 µM

Lab note: next compound to report on.
Task item: Please report the recorded IC50 for `COc1ccc(C(=O)c2c(N)sc3ccccc23)cc1` .
Reply: > 10 µM
